System: PCA response
Test: Rat Passive Cutaneous Anaphylaxis (PCA) test, ovalbumin challenge
Format: in vivo, Wistar rats
Details: 25 mg/kg; 0 min between dosing and challenge; suspension of Na salt in 1% methyl cellulose
Protocol: All of the 2-nitro indane-1,3-dione prepared in the preceding Examples were submitted for biological testing. The test system was the Rat Passive Cutaneous Anaphylaxis (PCA) test described below in (ii). […] 0.1 ml of each of six twofold serial dilutions of the serum in 0.9% saline were injected intradermally into separate sites on the shaved dorsal surface of 250-350 g. […] The rats were killed after 20 minutes and the diameter of the blue wheals at the antibody injection sites were measured. […]
property name: % INHIBITION OF PCA RESPONSE (%)
Respond numerically; units are % and should not be typed.

QUERY: Which value of % INHIBITION OF PCA RESPONSE has been reported for O=C1c2ccc(-c3ccccc3)cc2C(=O)C1[N+](=O)[O-] (stereo not drawn) [2-nitro-5-phenyl indane-1,3-dione, 2-Nitro-5-phenyl indane-1,3-dione] in the records?
RESULT: 58

QUERY: Which value of % INHIBITION OF PCA RESPONSE has been reported for CC(C)Oc1cccc2c1C(=O)C([N+](=O)[O-])C2=O (stereo not drawn) [4-isopropyloxy-2-nitroindane 1,3-dione, 4Isopropyloxy-2-nitro-indane-1,3-dione] in the records?
RESULT: 23

QUERY: Which value of % INHIBITION OF PCA RESPONSE has been reported for COc1cccc2c1C(=O)C([N+](=O)[O-])C2=O (stereo not drawn) [4-methoxy-2-nitroindane-1,3-dione, 4-Methoxy-2-nitro indane-1,3-dione] in the records?
RESULT: -2

QUERY: Which value of % INHIBITION OF PCA RESPONSE has been reported for Cc1ccc(C)c2c1C(=O)C([N+](=O)[O-])C2=O [4,7-dimethyl-2-nitroindane-1,3-dione, 4,7-Dimethyl-2-nitro-indane-1,3-dione] in the records?
RESULT: 35

QUERY: Which value of % INHIBITION OF PCA RESPONSE has been reported for O=C1c2ccc3c(c2C(=O)C1[N+](=O)[O-])CCC3 (stereo not drawn) [4,5-cyclopentano 2-nitroindane 1,3-dione] in the records?
RESULT: 5

QUERY: Which value of % INHIBITION OF PCA RESPONSE has been reported for O=C1c2cccc(Br)c2C(=O)C1[N+](=O)[O-] (stereo not drawn) [4-bromo-2-nitroindane-1,3-dione, 4-Bromo-2-nitro indane-1,3dione] in the records?
RESULT: 8

====

Tested on: PCA response
Experiment: Rat Passive Cutaneous Anaphylaxis (PCA) test, ovalbumin challenge
Type: in vivo, Wistar rats
Settings: 25 mg/kg; 0 min between dosing and challenge; suspension of Na salt in 1% methyl cellulose
Param threshold (20%) applies to % INHIBITION OF PCA RESPONSE; output Condition met when value >= threshold, Condition not met when value < threshold.

QUERY: # check: % INHIBITION OF PCA RESPONSE of O=C1c2ccc3ccccc3c2C(=O)C1[N+](=O)[O-] (centres unmarked) [2-nitrobenz(e) indane-1,3-dione, 2-Nitro benz(e)indane-1,3-dione] is greater than or equal to 20%
RESULT: Condition not met

QUERY: # check: % INHIBITION OF PCA RESPONSE of Cc1cccc2c1C(=O)C([N+](=O)[O-])C2=O (centres unmarked) [4-methyl-2-nitroindane-1,3-dione, 4-Methyl-2-nitroindane-1,3-dione] is greater than or equal to 20%
RESULT: Condition not met

QUERY: # check: % INHIBITION OF PCA RESPONSE of O=C1c2cc3ccccc3cc2C(=O)C1[N+](=O)[O-] [2-nitro-benz[f] indane 1,3-dione, 2-Nitro benz[f] indane-1,3-dione] is greater than or equal to 20%
RESULT: Condition met

QUERY: # check: % INHIBITION OF PCA RESPONSE of CCc1cccc2c1C(=O)C([N+](=O)[O-])C2=O (centres unmarked) [4-ethyl-2-nitroindane-1,3-dione, 4-Ethyl-2-nitro indane-1,3-dione] is greater than or equal to 20%
RESULT: Condition not met

QUERY: # check: % INHIBITION OF PCA RESPONSE of Cc1cc2c(cc1C)C(=O)C([N+](=O)[O-])C2=O [5,6-dimethyl-2-nitroindane-1,3-dione, 5,6-Dimethyl-2-nitro-indane-1,3-dione] is greater than or equal to 20%
RESULT: Condition met

Data credit: patent US3988476A
